Catalogue of molecules with associated PI3Kδ IH % @ 1 uM
# target of assay: p110δ/p85α (Homo sapiens)
# Construct: purchased Invitrogen
# Sequence (O00329 whole entry, species assumed): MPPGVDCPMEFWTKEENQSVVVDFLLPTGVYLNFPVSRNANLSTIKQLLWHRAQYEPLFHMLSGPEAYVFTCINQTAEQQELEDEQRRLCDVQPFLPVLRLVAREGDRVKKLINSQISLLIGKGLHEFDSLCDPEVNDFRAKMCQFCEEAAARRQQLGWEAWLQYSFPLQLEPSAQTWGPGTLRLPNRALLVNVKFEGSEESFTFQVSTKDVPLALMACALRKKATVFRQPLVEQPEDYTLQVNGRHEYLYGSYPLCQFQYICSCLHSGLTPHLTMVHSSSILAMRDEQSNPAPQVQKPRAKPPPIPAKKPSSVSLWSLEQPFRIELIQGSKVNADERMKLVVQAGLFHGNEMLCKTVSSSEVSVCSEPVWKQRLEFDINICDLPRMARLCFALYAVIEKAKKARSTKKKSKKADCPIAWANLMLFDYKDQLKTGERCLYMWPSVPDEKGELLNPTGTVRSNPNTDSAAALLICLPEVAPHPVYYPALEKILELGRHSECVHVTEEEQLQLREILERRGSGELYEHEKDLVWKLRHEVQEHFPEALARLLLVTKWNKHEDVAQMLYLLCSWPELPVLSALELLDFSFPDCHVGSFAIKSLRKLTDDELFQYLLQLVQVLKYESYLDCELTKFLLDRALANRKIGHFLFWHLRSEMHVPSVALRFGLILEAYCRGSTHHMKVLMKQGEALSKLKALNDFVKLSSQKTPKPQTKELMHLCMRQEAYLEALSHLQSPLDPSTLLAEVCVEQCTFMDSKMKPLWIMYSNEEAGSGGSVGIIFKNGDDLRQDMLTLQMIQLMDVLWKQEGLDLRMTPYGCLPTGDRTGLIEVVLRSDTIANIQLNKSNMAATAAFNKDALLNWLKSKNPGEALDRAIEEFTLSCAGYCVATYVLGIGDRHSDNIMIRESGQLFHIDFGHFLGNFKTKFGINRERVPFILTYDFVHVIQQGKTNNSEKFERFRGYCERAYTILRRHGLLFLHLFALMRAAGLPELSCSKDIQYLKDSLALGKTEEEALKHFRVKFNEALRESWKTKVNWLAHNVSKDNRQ
# Sequence (P27986 whole entry partner, species assumed): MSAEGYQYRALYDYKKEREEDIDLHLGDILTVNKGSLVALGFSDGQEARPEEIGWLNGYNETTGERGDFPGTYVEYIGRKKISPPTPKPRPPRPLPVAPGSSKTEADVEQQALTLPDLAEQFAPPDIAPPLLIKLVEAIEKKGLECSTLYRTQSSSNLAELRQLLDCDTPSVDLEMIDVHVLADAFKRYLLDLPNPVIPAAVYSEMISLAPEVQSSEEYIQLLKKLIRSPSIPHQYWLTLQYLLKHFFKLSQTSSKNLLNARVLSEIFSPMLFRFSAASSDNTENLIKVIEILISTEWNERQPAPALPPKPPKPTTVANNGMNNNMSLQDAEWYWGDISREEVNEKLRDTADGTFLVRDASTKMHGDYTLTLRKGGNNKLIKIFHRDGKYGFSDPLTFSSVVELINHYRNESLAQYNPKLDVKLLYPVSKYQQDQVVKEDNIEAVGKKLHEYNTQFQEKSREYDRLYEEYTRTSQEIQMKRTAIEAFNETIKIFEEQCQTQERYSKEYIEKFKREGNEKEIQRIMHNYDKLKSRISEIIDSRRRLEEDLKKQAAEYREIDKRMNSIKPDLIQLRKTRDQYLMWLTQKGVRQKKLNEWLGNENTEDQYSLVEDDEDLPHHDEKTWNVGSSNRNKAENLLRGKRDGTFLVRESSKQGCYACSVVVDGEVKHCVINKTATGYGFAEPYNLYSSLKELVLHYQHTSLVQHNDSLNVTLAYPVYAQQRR
# method notes: Transcreener KINASE Assay, kinase inhibition of p110δ/p85α
# Format: biochemical
# run parameters: @ 1 uM
All answers are understood in %, so give the number only.

Nc1ncnc(N2CCC[C@H]2c2nn3cccc3c(=O)n2-c2ccccc2)c1Cl; 100
Nc1nc(N2CCC[C@H]2c2nn3cccc3c(=O)n2-c2ccccc2)c2cc[nH]c2n1; 60.4
O=c1c2cccn2nc([C@@H]2CCCN2c2ncnc3[nH]cnc23)n1-c1ccccc1; 94.1
Nc1nc(N2CCC[C@H]2c2nn3cccc3c(=O)n2-c2ccccc2)c2cn[nH]c2n1; 22.9
C=Cc1c[nH]c2ncnc(N3CCC[C@H]3c3nn4cccc4c(=O)n3-c3ccccc3)c12; 88.4

**Query** Report the value of PI3Kδ IH % @ 1 uM obtained on p110δ/p85α (Homo sapiens) for "N#Cc1c[nH]c2ncnc(N3CCC[C@H]3c3nn4cccc4c(=O)n3-c3cccc(Cl)c3)c12" .
**Result** 100

**Query** Report the value of PI3Kδ IH % @ 1 uM obtained on p110δ/p85α (Homo sapiens) for "N#Cc1c[nH]c2ncnc(N3CCC[C@H]3c3nn4c(F)ccc4c(=O)[nH]3)c12" .
**Result** 86.8

**Query** Report the value of PI3Kδ IH % @ 1 uM obtained on p110δ/p85α (Homo sapiens) for "N#Cc1c[nH]c2ncnc(N3CCC[C@H]3c3nn4ccc(C#N)c4c(=O)n3-c3ccccc3)c12" .
**Result** 99.3

**Query** Report the value of PI3Kδ IH % @ 1 uM obtained on p110δ/p85α (Homo sapiens) for "N#Cc1c[nH]c2ncnc(N3CCC[C@@H]3c3nn4cccc4c(=O)n3-c3ccccc3)c12" .
**Result** 7.7

**Query** Report the value of PI3Kδ IH % @ 1 uM obtained on p110δ/p85α (Homo sapiens) for "N#Cc1ccn2nc([C@@H]3CCCN3c3ncnc4[nH]cnc34)n(-c3ccccc3)c(=O)c12" .
**Result** 94.6
